Every entry's value here was drawn from patent US7485647B2.

molecular target: human MCH-1R (Homo sapiens, UniProt Q99705)
Sequence (Q99705 whole entry): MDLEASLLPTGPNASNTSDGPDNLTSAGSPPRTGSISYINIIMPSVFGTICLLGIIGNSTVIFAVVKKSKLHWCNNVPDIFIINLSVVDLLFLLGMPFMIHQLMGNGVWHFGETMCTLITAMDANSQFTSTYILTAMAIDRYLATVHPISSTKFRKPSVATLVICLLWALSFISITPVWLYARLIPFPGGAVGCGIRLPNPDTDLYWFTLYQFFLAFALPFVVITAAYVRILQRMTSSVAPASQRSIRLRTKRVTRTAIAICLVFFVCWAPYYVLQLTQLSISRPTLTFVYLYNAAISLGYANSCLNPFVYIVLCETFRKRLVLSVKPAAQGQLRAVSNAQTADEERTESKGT
readout.name: pIC50
// returns pIC50 (minus log10 of molar concentration), number only

Please give the documented pIC50 of CN(C)C(=O)N(C)[C@@H]1CCN(c2ccc3cc(NC(=O)c4ncc(-c5ccccc5)cn4)ccc3n2)C1 [Example 9] 8.43
